Hey, just so you know, these numbers are from PubChem BioAssay (NCI).

Assay: NCI Yeast Anticancer Drug Screen. Data for the cln2 rad14 strain (AID 165)
Details: S. cerevisiae cln2 rad14 strain, at 50.0 µM (retest, dose inferred, filed as 5.0)
The panel holds about 79,000 compounds, 15% with a hit somewhere; the sample as a whole holds those more often. Active and inactive are the calls of the source. No stated cut-off is given here; in the data, active means growth inhibition above about 70%; inactive means the rest.
Outcome codes: true (active), false (inactive)

{"Molecule": "c1ccc2c3ccn4cc5c(cc4c-3nc2c1)CCCC5", "Discrete label": "true"}
{"Molecule": "[Cl][Hg].c1ccc([As]c2ccc(-c3ccccc3)cc2)cc1 (stereo not drawn)", "Discrete label": "true"}
{"Molecule": "O=[N+]([O-])c1ccccc1", "Discrete label": "false"}
{"Molecule": "CCC[CH2][Sn]1([CH2]CCC)[O]C(c2ccccn2)S(=O)(=O)[O]1 (stereo not drawn)", "Discrete label": "false"}
{"Molecule": "CSc1nncc(=O)[nH]1.[Hg]", "Discrete label": "true"}
{"Molecule": "C=Cc1cc(OC)c2c(c1)c(=O)oc1c2cc(OC)c2c(O)ccc(C3OC(C)C(O)C(C)(O)C3O)c21 (stereo not drawn)", "Discrete label": "true"}
{"Molecule": "CCC[CH2][Sn]([Cl])([CH2]C)[O][Sn]([Cl])([CH2]C)[CH2]CCC (stereo not drawn)", "Discrete label": "true"}
{"Molecule": "CCN(CC)CCBr", "Discrete label": "false"}
{"Molecule": "CCN(Cc1ccccc1)CC(O)c1ccc(Cl)c(Cl)c1 (stereo not drawn)", "Discrete label": "true"}
{"Molecule": "O=CNc1ccccc1.[Hg]", "Discrete label": "true"}
{"Molecule": "NCCBr", "Discrete label": "false"}
{"Molecule": "CCCCCNC(=O)c1c(O)[nH]c(=S)[nH]c1=O", "Discrete label": "false"}
{"Molecule": "COC1CC2C(C[CH]1[Hg][Cl])C2(Cl)Cl (stereo not drawn)", "Discrete label": "true"}
{"Molecule": "O=C(CCl)Nc1cccc(Cl)c1", "Discrete label": "false"}
{"Molecule": "O=C(N/N=C/c1cc(Cl)cc(Cl)c1[O-])c1ccccc1O.O=C(N/N=C/c1cc(Cl)cc(Cl)c1[O-])c1ccccc1O.[Mn+2]", "Discrete label": "true"}
{"Molecule": "CCC[CH2][Sn]([N]=C=S)([N]=C=S)[N]=C=S.O=P(c1ccccc1)(c1ccccc1)c1ccccc1.O=P(c1ccccc1)(c1ccccc1)c1ccccc1", "Discrete label": "false"}
{"Molecule": "C(CCC[Te][Te]CCCCCCOC1CCCCO1)CCOC1CCCCO1 (stereo not drawn)", "Discrete label": "false"}
{"Molecule": "O=C(O)C1C2C=CC(C2)C1c1ccccc1 (stereo not drawn)", "Discrete label": "false"}
{"Molecule": "CC[N-]c1nnnn1CC.[Au+].c1ccc([PH+](c2ccccc2)c2ccccc2)cc1", "Discrete label": "true"}
{"Molecule": "COC1OC(COC(C)=O)C(OC(C)=O)C(OC(C)=O)[CH]1[Hg][I] (stereo not drawn)", "Discrete label": "true"}
{"Molecule": "COc1ccc(CNCCc2ccc(O)c(OC)c2)cc1O", "Discrete label": "false"}
{"Molecule": "CCN(CCCl)c1cc(CN(C)C)cc(NC(=O)c2ccc(C(=O)Nc3cc(CN(C)C)cc(N(CC)CCCl)c3)cc2)c1", "Discrete label": "false"}
{"Molecule": "C[CH2][Sn]([CH2]C)([O]C(C)=O)[O][Sn]([CH2]C)([CH2]C)[O]C(C)=O", "Discrete label": "false"}
